Measured Kd by item
Molecular target: T1, GFP-9S library array, motif 4 ND N98Y;D124H (synthetic construct, N98Y;D124H)
T1 chain: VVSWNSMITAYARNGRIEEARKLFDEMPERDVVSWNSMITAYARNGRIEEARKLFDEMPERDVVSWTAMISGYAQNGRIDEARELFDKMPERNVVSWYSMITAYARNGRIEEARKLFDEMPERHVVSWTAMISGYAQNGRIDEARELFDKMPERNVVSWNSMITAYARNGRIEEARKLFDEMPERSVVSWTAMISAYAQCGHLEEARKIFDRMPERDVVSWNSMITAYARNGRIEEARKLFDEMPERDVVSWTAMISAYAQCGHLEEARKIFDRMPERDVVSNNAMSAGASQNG
Experiment: high-throughput RNA pulldown from lysate on Ni-NTA beads; HRP: 50 mM Tris pH 8, 150 mM NaCl, 1 mM beta-mercaptoethanol, 50 ug/ml BSA, 3 ug/ml yeast RNA, 0.5% heparin; ITC and FP: Tris pH 8, 200 mM KCl, 5% glycerol; MST: 50 mM Tris pH 8, 200 mM NaCl, 1 mM DTT, BSA, heparin, 0.05% Tween 20
Details: tags: N-terminal His-eGFP; label: 5' Cy5
Write down the value, and be sure its unit follows.

binder	quantity.measured	value.observed
AUUACACGUGA (ssRNA) [Cy5-rpoA]	Kd	5.06 nM

Query: Record request: Kd value, item AUUAGACGUGA (ssRNA) [Cy5-rpoA-G]
Response: 46 nM
